Examples of compounds with documented GI50 follow.
test system: BT-474 cancer cells; experiment: Inhibition of BT-474 cell proliferation (CellTiter-Glo); type: cell-based; conditions: Homo sapiens, BT-474 cells, 120 hours

These recorded examples may help you get a feel for the data.
> print(dat)
                                   compound  readout.value
1  COc1cc2ncnc(Nc3cc(Cl)c(Oc4ccn5ncnc5c4)cc3OC)c2cc1NC(=O)/C(F)=C/[C@H]1CCCN1C        ≤ 50 nM
2  C=CC(=O)N1CCC(Nc2cc3c(Nc4cc(Cl)c(Oc5cccc(F)c5)cc4OC)ncnc3cc2OC)CC1        ≤ 50 nM
3  COc1cc2ncnc(Nc3cc(C)c(Oc4ccn5ncnc5c4)cc3OC)c2cc1NC(=O)/C=C/[C@H]1CCCN1C        ≤ 50 nM

Reported GI50 ( COc1cc2ncnc(Nc3cc(C)c(Oc4ccn5ncnc5c4)cc3OC)c2cc1NC(=O)/C(F)=C\[C@H]1CCCN1 ) = ≤ 50 nM

Reported GI50 ( COc1cc2ncnc(Nc3cc(C)c(Oc4ccc5ncsc5c4)cc3OC)c2cc1NC(=O)/C(F)=C\[C@H]1CCCN1C ) = ≤ 50 nM

Reported GI50 ( COc1cc(Oc2ccn3ncnc3c2)c(C)cc1Nc1ncnc2cc(OC3CCOC3)c(NC(=O)/C(F)=C/[C@H]3CCCN3C)cc12 (stereo partly shown) ) = ≤ 50 nM

Reported GI50 ( COc1cc2ncnc(Nc3cc(F)c(Oc4ccn5ncnc5c4)cc3OC)c2cc1NC(=O)/C(F)=C/[C@H]1CCCN1C ) = ≤ 50 nM
